# Tested on: HCC1569
# Protocol Summary: H1.0 immunofluorescence intensity relative to DMSO (% of DMSO); higher = stronger H1.0 induction, active = 140 or more;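 note: TDF is a line of transformed human dermal fibroblasts of mesenchymal origin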
# Recorded Conditions: concentration: 10 µM; 24 h
# maps each entry to its H1.0 immunofluorescence intensity

Below are worked cases with known answers.
INSERT INTO assay_data (compound, study_system, meas_value) VALUES
  ('CCc1c(CC(N)=O)c2cc(OCCCP(=O)(O)O)ccc2n1Cc1ccccc1', 'HCC1569', '101 (inactive)'),
  ('CCN(CC)C(=S)SSC(=S)N(CC)CC [Tetraethylthiuram disulfide]', 'HCC1569', '102 (inactive)'),
  ('CCCOc1ccc(C=C2SC(=O)NC2=O)cc1', 'HCC1569', '98.1 (inactive)');

Kindly review the next compound as well.
Exercise: What value of H1.0 immunofluorescence intensity has been recorded for this entry: CC(CCc1ccccc1)NCC(O)c1ccc(O)c(C(N)=O)c1.Cl (centres undefined) [Labetalol hydrochloride]
Solution: 99.3 (inactive)

====

# H1.0 immunofluorescence intensity per record follows
# System: TDF
# Protocol Summary: H1.0 immunofluorescence intensity relative to DMSO (% of DMSO); higher = stronger H1.0 induction, active = 120 or more
# Recorded Conditions: concentration: 10 µM; 24 h
Give a plain numeric answer without units written out.

The examples below pair each entry with its known result.
INSERT INTO measurements (compound, meas_value) VALUES
  ('COc1ccc2c(c1)c(CC(=O)N1CCOCC1)c(C)n2C(=O)c1ccc(Cl)cc1', 94.6),
  ('CC(OC(=O)c1ccc(F)cc1F)C(=O)N(C)C1CCS(=O)(=O)C1 (stereo not given)', 110),
  ('C[C@H](O)[C@H](O)[C@H]1CNc2[nH]c(N)nc(=O)c2N1.Cl.Cl', 92.5),
  ('CC12CCC3c4ccc(O)cc4CCC3C1CCC2O (stereo not drawn) [beta-Estradiol]', 101);

Exercise: Item under review: O=C1NC(=O)c2cc(Nc3ccc(F)cc3)c(Nc3ccc(F)cc3)cc21 [PKCbII/EGFR Inhibitor] . Reported H1.0 immunofluorescence intensity?
Solution: 89.7

====

# Tested on: HCC1569
# Protocol Summary: H1.0 immunofluorescence intensity relative to DMSO (% of DMSO); higher = stronger H1.0 induction, active = 140 or more
# Recorded Conditions: concentration: 10 µM; 24 h
Could you label it Yes if measured H1.0 immunofluorescence intensity is 100 or higher, and No otherwise?

Below, 3 compounds whose answers are already recorded.
INSERT INTO results (compound, label) VALUES
  ('O=C1Nc2cc(Br)ccc2C1=C1N=c2ccccc2=C1NO [(2''Z,3''E)-6-Bromoindirubin-3''-oxime]', 'Yes'),
  ('CCCC[C@@H](C=O)NC(=O)[C@H](CC(C)C)NC(=O)[C@H](CC(C)C)NC(C)=O', 'Yes'),
  ('Nc1nc(=O)c2ncc(=O)[nH]c2[nH]1', 'No');

Exercise: Is H1.0 immunofluorescence intensity at least 100? Consider O=c1[nH]c2ccccc2c2ccccc12
Solution: Yes

Exercise: Determine whether measured H1.0 immunofluorescence intensity meets or exceeds 100 for Cc1[nH]c2ccccc2c1C1=C(NCCc2ccc(F)cc2)C(=O)N(C)C1=O
Solution: Yes

Exercise: Entry CCCCN(CCCC)CC(O)c1cc(Cl)cc2c1-c1ccc(Cl)cc1/C2=C/c1ccc(Cl)cc1 (configuration not stated) : is its H1.0 immunofluorescence intensity no less than 100?
Solution: Yes

Exercise: Exam item: decide whether the reported H1.0 immunofluorescence intensity for Br.CCSC(=N)N [S-Ethylisothiourea hydrobromide] is at least 100.
Solution: No

Exercise: Entry CCCCCCCCCCCCCCC(=O)O : is its H1.0 immunofluorescence intensity no less than 100?
Solution: Yes

Exercise: H1.0 immunofluorescence intensity >= 100 for Clc1ccc(Nc2nnc(Cc3ccncc3)c3ccccc23)cc1 ?
Solution: Yes

Exercise: Kindly determine if H1.0 immunofluorescence intensity recorded for NCC1OC(OC2C(N)CC(N)C(OC3OC(CO)C(O)C(N)C3O)C2O)C(O)C(O)C1O.O=S(=O)(O)O (configuration not stated) [Kanamycin sulfate] is above or exactly 100.
Solution: No

Exercise: // inclusive: H1.0 immunofluorescence intensity at least 100? input: C[n+]1cc2c3c(ccc2c2ccc4cc5c(cc4c21)OCO5)OCO3.[Cl-] [Sanguinarine chloride]
Solution: Yes

Exercise: API: above_or_equal(metric=H1.0 immunofluorescence intensity, cutoff=100) for item CCC(CO)Nc1nc(NCc2ccc(-c3ccccn3)cc2)c2ncn(C(C)C)c2n1 [CR8, (S)-Isomer]
Solution: Yes

Exercise: State whether the measured H1.0 immunofluorescence intensity reaches 100, counting equality as reaching it, for O=c1[nH]c2cc(Cl)ccc2c(O)c1-c1cccc(Oc2ccccc2)c1
Solution: No

Exercise: Could you tell me if the measured H1.0 immunofluorescence intensity of O=c1ccc2ccc(O)c(O)c2o1 [7,8-dihydroxy-2H-chromen-2-one] reaches 100 or more?
Solution: No

Exercise: Check if H1.0 immunofluorescence intensity >= 100 (inclusive). Item: O=C(O)c1cn(-c2ccc(F)cc2)c2cc(N3CCNCC3)c(F)cc2c1=O
Solution: No

Exercise: Confirm if H1.0 immunofluorescence intensity reported for the compound CC(C)C[C@H](NC(=O)C(O)[C@H](N)Cc1ccc([N+](=O)[O-])cc1)C(=O)O.Cl (some centres not stated) is 100 or above.
Solution: No

Exercise: Is reported H1.0 immunofluorescence intensity greater than or equal to 100 here: Nc1c2c(nc3ccccc13)CCCC2
Solution: Yes

Exercise: # bool: H1.0 immunofluorescence intensity of Cn1c(=O)c2c(ncn2C)n(C)c1=O >= 100
Solution: No

Exercise: hey, is H1.0 immunofluorescence intensity for this one >= 100? O=c1[nH]c(=O)c2nc3ccccc3nc2[nH]1
Solution: No
